- PROTOCOL DESCRIPTION: Stability of the compound at 4 degC
- Format: physicochemical
PARAMETER MEASURED: Stability (yr)
Numbers only, in yr.

Guide cases for Stability, answers given:
RECORD SMILES	Stability [yr]
C#Cc1nccn1C(=O)[C@]12CCC(C)(C)C[C@H]1[C@H]1C(=O)C=C3[C@@]4(C)C=C(C#N)C(=O)C(C)(C)[C@@H]4CC[C@@]3(C)[C@]1(C)CC2	3
CC1(C)CC[C@]2(C(=O)n3ccnc3)CC[C@]3(C)[C@H](C(=O)C=C4[C@@]5(C)C=C(C#N)C(=O)C(C)(C)[C@@H]5CC[C@]43C)[C@@H]2C1	1
CC#Cc1nc(C)cn1C(=O)[C@]12CCC(C)(C)C[C@H]1[C@H]1C(=O)C=C3[C@@]4(C)C=C(C#N)C(=O)C(C)(C)[C@@H]4CC[C@@]3(C)[C@]1(C)CC2	3
C#Cc1cn(C(=O)[C@]23CCC(C)(C)C[C@H]2[C@H]2C(=O)C=C4[C@@]5(C)C=C(C#N)C(=O)C(C)(C)[C@@H]5CC[C@@]4(C)[C@]2(C)CC3)cn1	3

We next turn to a different compound, shown below.
// query Item CC1(C)CC[C@]2(C(=O)n3ccnc3C#Cc3ccccc3)CC[C@]3(C)[C@H](C(=O)C=C4[C@@]5(C)C=C(C#N)C(=O)C(C)(C)[C@@H]5CC[C@]43C)[C@@H]2C1 has what recorded Stability?
// result 3

----------
Give measured CD for each item. Keep answers brief.
- SYSTEM UNDER TEST: NAD(P)H dehydrogenase [quinone] 1 (Mus musculus)
- PROTOCOL DESCRIPTION: Induction of NQO1 activity in mouse Hepa-1c1c7 cells assessed as concentration require to double the specific enzyme activity after 48 hrs
- Assay type: cell-based
One number for each entry, in nM.

// for each compound below, give its CD
1. CC#Cc1nc(C)cn1C(=O)[C@]12CCC(C)(C)C[C@H]1[C@H]1C(=O)C=C3[C@@]4(C)C=C(C#N)C(=O)C(C)(C)[C@@H]4CC[C@@]3(C)[C@]1(C)CC2
2. C#Cc1nccn1C(=O)[C@]12CCC(C)(C)C[C@H]1[C@H]1C(=O)C=C3[C@@]4(C)C=C(C#N)C(=O)C(C)(C)[C@@H]4CC[C@@]3(C)[C@]1(C)CC2

// result
[0.4, 0.9]

Parameters: items (list). Returns: CD for each item.
1. C#Cc1cn(C(=O)[C@]23CCC(C)(C)C[C@H]2[C@H]2C(=O)C=C4[C@@]5(C)C=C(C#N)C(=O)C(C)(C)[C@@H]5CC[C@@]4(C)[C@]2(C)CC3)cn1
2. CC1(C)CC[C@]2(C(=O)O)CC[C@]3(C)[C@H](C(=O)C=C4[C@@]5(C)C=C(C#N)C(=O)C(C)(C)[C@@H]5CC[C@]43C)[C@@H]2C1 [BARDOXOLONE]
3. CC1(C)CC[C@]2(C(=O)n3ccnc3C#Cc3ccccc3)CC[C@]3(C)[C@H](C(=O)C=C4[C@@]5(C)C=C(C#N)C(=O)C(C)(C)[C@@H]5CC[C@]43C)[C@@H]2C1
4. CC1(C)CC[C@]2(C(=O)n3ccnc3)CC[C@]3(C)[C@H](C(=O)C=C4[C@@]5(C)C=C(C#N)C(=O)C(C)(C)[C@@H]5CC[C@]43C)[C@@H]2C1

// result
1. 0.4
2. 3
3. 1.2
4. 0.2

----------
Give measured IC50 for each item. Keep answers brief.
- Tested on: RAW264.7
- PROTOCOL DESCRIPTION: Inhibition of NO production in INFgamma-stimulated mouse RAW264.7 cells measured after 24 hrs by Griess reaction method
- Type: functional, cell-based
- MEASUREMENT CONDITIONS: RAW264.7, 24 h
Numbers only, in nM.

MOLECULE	IC50, nM
CC#Cc1nc(C)cn1C(=O)[C@]12CCC(C)(C)C[C@H]1[C@H]1C(=O)C=C3[C@@]4(C)C=C(C#N)C(=O)C(C)(C)[C@@H]4CC[C@@]3(C)[C@]1(C)CC2	2
CC1(C)CC[C@]2(C(=O)n3ccnc3C#Cc3ccccc3)CC[C@]3(C)[C@H](C(=O)C=C4[C@@]5(C)C=C(C#N)C(=O)C(C)(C)[C@@H]5CC[C@]43C)[C@@H]2C1	4
CC1(C)CC[C@]2(C(=O)n3cnc(C#Cc4ccccc4)c3)CC[C@]3(C)[C@H](C(=O)C=C4[C@@]5(C)C=C(C#N)C(=O)C(C)(C)[C@@H]5CC[C@]43C)[C@@H]2C1	7.8
C#Cc1cn(C(=O)[C@]23CCC(C)(C)C[C@H]2[C@H]2C(=O)C=C4[C@@]5(C)C=C(C#N)C(=O)C(C)(C)[C@@H]5CC[C@@]4(C)[C@]2(C)CC3)cn1	1.4
C#Cc1nccn1C(=O)[C@]12CCC(C)(C)C[C@H]1[C@H]1C(=O)C=C3[C@@]4(C)C=C(C#N)C(=O)C(C)(C)[C@@H]4CC[C@@]3(C)[C@]1(C)CC2	2.3
CC1(C)CC[C@]2(C(=O)O)CC[C@]3(C)[C@H](C(=O)C=C4[C@@]5(C)C=C(C#N)C(=O)C(C)(C)[C@@H]5CC[C@]43C)[C@@H]2C1 [BARDOXOLONE]	11

Attention now shifts to the item below.
// query Look up IC50: CC1(C)CC[C@]2(C(=O)n3ccnc3)CC[C@]3(C)[C@H](C(=O)C=C4[C@@]5(C)C=C(C#N)C(=O)C(C)(C)[C@@H]5CC[C@]43C)[C@@H]2C1
// result 0.6

Cited source: ChEMBL document CHEMBL1759875
